Experiment: qHTS for Inhibitors of human tyrosyl-DNA phosphodiesterase 1 (TDP1): qHTS in cells in absence of CPT; also: nearly all actives have a fitted effect of over 55% in size; also: potency is read from the fitted curve at half-maximal effect
Conditions: DT40 Tdp1-/- hTDP1 cells, no CPT, ATP luminescence, 48 h
Screen size: about 420,000 compounds; about 64,000 (15%) were called active. Another 27% or so got no clear call; they are omitted. These entries were drawn from the full list.

{"compound": "Cc1ccc(S(=O)(=O)NC2(C(F)(F)F)NC(=O)N(CCc3ccccc3)C2=O)cc1 (stereo not given)", "Potency": "inactive"}
{"compound": "O=C(COc1cccc(F)c1)Oc1ccc(C(=O)c2ccccc2)cc1", "Potency": "inactive"}
{"compound": "CCOc1ccccc1Nc1ccc(C(=O)O)cc1[N+](=O)[O-]", "Potency": "inactive"}
{"compound": "O=C(Cn1cnc2c(nnn2-c2ccccc2)c1=O)N1CCC(Cc2ccccc2)CC1", "Potency": "20.6 µM (active)"}
{"compound": "Cc1cccc(C)c1NC(=O)CNC(=O)Cc1ccc(Br)cc1", "Potency": "inactive"}
{"compound": "COCCCn1c(=O)/c(=C/c2ccccc2OC(C)C)s/c1=C(\\C#N)C(=O)Nc1ccc(C(=O)O)cc1", "Potency": "20.6 µM (active)"}
{"compound": "Nc1nc(SCC(=O)NNc2c(Cl)cc(Cl)cc2Cl)n[nH]1", "Potency": "inactive"}
{"compound": "CN(C)c1ccc(N/C=C/C(=O)C(F)(F)F)cc1", "Potency": "inactive"}
{"compound": "COc1ccccc1C(=O)N/C(=C/c1ccco1)C(=O)Nc1ccc(C(=O)O)cc1", "Potency": "inactive"}
{"compound": "O=C(NCCN1CCOCC1)[C@H](Cc1ccccc1)N1C(=O)c2ccccc2C1=O", "Potency": "inactive"}
